Data credit: PubChem BioAssay AID1963959

# Test system: T-47D spheroids with HUVEC/MSC, viability
# ASSAY_OVERVIEW: Anticancer human tumor T-47D cell line growth inhibition [PI3K];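 further: spheroids exposed to agents for seven days before reading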
# MEASUREMENT_PARAMETERS: curve of first compound; second compound 0.316 µM
MEASURED_PARAMETER: IC50

Data request: Supply IC50 value. Item: C[C@@H](NC(=O)c1ncnc(N)c1Cl)c1ncc(C(=O)Nc2cc(C(F)(F)F)c(Cl)cn2)s1 + CC(Nc1ccc2c(c1)OCCn1cc(N3C(=O)OCC3C(F)F)nc1-2)C(N)=O
Data returned: > 10000 nM

Data request: Supply IC50 value. Item: C[C@@H](NC(=O)c1ncnc(N)c1Cl)c1ncc(C(=O)Nc2cc(C(F)(F)F)c(Cl)cn2)s1 + COc1c(OCCCN2CCOCC2)ccc2c3n(c(=NC(=O)c4cnc(N)nc4)nc12)CCN3
Data returned: < 31.6 nM

Data request: Supply IC50 value. Item: CC1(C)CCC(CN2CCN(c3ccc(C(=O)NS(=O)(=O)c4ccc(NCC5CCOCC5)c([N+](=O)[O-])c4)c(Oc4cnc5[nH]ccc5c4)c3)CC2)=C(c2ccc(Cl)cc2)C1 + COc1c(OCCCN2CCOCC2)ccc2c3n(c(=NC(=O)c4cnc(N)nc4)nc12)CCN3
Data returned: < 31.6 nM

Data request: Supply IC50 value. Item: CC(=O)c1c(C)c2cnc(Nc3ccc(N4CCNCC4)cn3)nc2n(C2CCCC2)c1=O + CC(Nc1ncnc2nc[nH]c12)c1cc2cccc(Cl)c2c(=O)n1-c1ccccc1
Data returned: > 100 nM

Data request: Supply IC50 value. Item: CCN1CCN(Cc2ccc(Nc3ncc(F)c(-c4cc(F)c5nc(C)n(C(C)C)c5c4)n3)nc2)CC1 + Cc1nc(NC(=O)N2CCCC2C(N)=O)sc1-c1ccnc(C(C)(C)C(F)(F)F)c1
Data returned: > 1000 nM

Data request: Supply IC50 value. Item: CCCS(=O)(=O)Nc1ccc(F)c(C(=O)c2c[nH]c3ncc(-c4ccc(Cl)cc4)cc23)c1F + COc1c(OCCCN2CCOCC2)ccc2c3n(c(=NC(=O)c4cnc(N)nc4)nc12)CCN3
Data returned: < 31.6 nM

Data request: Supply IC50 value. Item: C=CC(=O)N1CCN(c2nc(=O)n(-c3c(C)ccnc3C(C)C)c3nc(-c4c(O)cccc4F)c(F)cc23)C(C)C1 (stereo not given) + Cc1nc(NC(=O)N2CCCC2C(N)=O)sc1-c1ccnc(C(C)(C)C(F)(F)F)c1
Data returned: > 10000 nM

Data request: Supply IC50 value. Item: C=CC(=O)N1CCN(c2nc(=O)n(-c3c(C)ccnc3C(C)C)c3nc(-c4c(O)cccc4F)c(F)cc23)C(C)C1 (stereo not given) + COc1c(OCCCN2CCOCC2)ccc2c3n(c(=NC(=O)c4cnc(N)nc4)nc12)CCN3
Data returned: < 31.6 nM

Data request: Supply IC50 value. Item: CC1(C)CCC(CN2CCN(c3ccc(C(=O)NS(=O)(=O)c4ccc(NCC5CCOCC5)c([N+](=O)[O-])c4)c(Oc4cnc5[nH]ccc5c4)c3)CC2)=C(c2ccc(Cl)cc2)C1 + CC(Nc1ccc2c(c1)OCCn1cc(N3C(=O)OCC3C(F)F)nc1-2)C(N)=O
Data returned: > 10000 nM

Data request: Supply IC50 value. Item: Cn1cnc2c(F)c(Nc3ccc(Br)cc3Cl)c(C(=O)NOCCO)cc21 + CC(Nc1ncnc2nc[nH]c12)c1cc2cccc(Cl)c2c(=O)n1-c1ccccc1
Data returned: > 3000 nM
